Values compiled from PubChem BioAssay AID1159580.

# assay-method-text: chemical genetic growth profiling, strain panel (AID 1159580);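 also: tested at 20 µM; growth read once vehicle control cultures reached saturation at 30 °C; 1 = growth at the plate median or of vehicle wells; lower values mean less growth of the strain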
# test-parameters: S. cerevisiae deletion strains, growth OD, locus YML070W, strain DAK1, active compounds read low
In all, about 5,500 compounds went through this assay and about 2,000 (36%) were called active. Another 18% or so got no clear call; they are omitted. The list shows a part of the results.
measurement-name: normalized growth
Form field (numeric): enter value without unit.

Some molecules with known normalized growth results, for comparison:
>>> readout_value("N#Cc1c(Cl)c(Cl)c(Cl)c(Cl)c1C#N")
0.291
>>> readout_value("O=[N+]([O-])c1cc(C(F)(F)F)ccc1-n1ccc(-c2cccs2)n1")
0.87
>>> readout_value("O=C(NCc1ccco1)c1ccc(Oc2cc(Cl)cc(Cl)c2)o1")
0.94

Just so you know, measured normalized growth for C/C(=N/NC(N)=S)c1ccccn1 came out at 0.918

Just so you know, measured normalized growth for CC1=CC(=O)C(CCOCCC2=CC(=O)C(C)=CC2=O)=CC1=O came out at 0.866

Just so you know, measured normalized growth for O=C(Nc1cc(Cl)cc(Cl)c1)Nc1cc(-c2cccs2)[nH]n1 came out at 0.815

* * *

# assay-method-text: chemical genetic growth profiling, strain panel (AID 1159580);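 also: tested at 20 µM; growth read once vehicle control cultures reached saturation at 30 °C; 1 = growth at the plate median or of vehicle wells; lower values mean less growth of the strain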
# test-parameters: S. cerevisiae deletion strains, growth OD, locus YCL011C, strain gbp2, active compounds read low
About 2,000 (36%) of roughly 5,500 compounds were called active. Not shown: some 18% with an inconclusive outcome. The list shows a part of the results.
measurement-name: normalized growth
Form field (numeric): enter value without unit.

Some compounds with known normalized growth results, for comparison:
>>> readout_value("Cc1c(N(C)C)c(=O)n(-c2ccccc2)n1C")
1.01
>>> readout_value("COc1ccc2cc1Oc1ccc(cc1)C[C@H]1c3cc(c(OC)cc3CCN1C)Oc1c(OC)c(OC)cc3c1[C@H](C2)N(C)CC3")
0.988
>>> readout_value("O=C(O)c1ccccc1OP(=O)(O)O")
1.01
>>> readout_value("C[C@@H](N)CO")
0.997
>>> readout_value("CC(=O)[C@H]1CCC2C3C[C@H](C)C4=CC(=O)CC[C@]4(C)C3[C@@H](O)C[C@@]21C (stereo not given in full)")
0.964

Just so you know, measured normalized growth for NC(N)=NOCC[C@H](N)C(=O)O came out at 1.03

Just so you know, measured normalized growth for CC(C)(N=NC(C)(C)C(=N)N)C(=N)N came out at 1.03

* * *

Known normalized growth of a selection of molecules
# assay-method-text: chemical genetic growth profiling, strain panel (AID 1159580);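 also: tested at 20 µM; growth read once vehicle control cultures reached saturation at 30 °C; 1 = growth at the plate median or of vehicle wells; lower values mean less growth of the strain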
# test-parameters: S. cerevisiae deletion strains, growth OD, locus YHR200W, strain rpn10, active compounds read low
Screen size: about 5,500 compounds; about 2,000 (36%) were called active. Another 18% or so got no clear call; they are omitted. The list shows a part of the results.
Form field (numeric): enter value without unit.

Some molecules with known normalized growth results, for comparison:
>>> readout_value("COc1ccc(C(=O)c2ccccc2O)c(O)c1")
0.937
>>> readout_value("CCc1nc(N)nc(N)c1-c1ccc(Cl)cc1")
1
>>> readout_value("CCc1ccc(CCOc2ccc(CC3SC(=O)NC3=O)cc2)nc1 (stereo unspecified)")
0.995
>>> readout_value("COc1cc(O)c(C(=O)c2ccccc2)cc1O")
0.968
>>> readout_value("COC(=O)C1[C@H]2C[C@H]3c4[nH]c5ccccc5c4CCN3C[C@@H]2CC[C@@H]1O (stereo partly specified)")
1.02

Just so you know, measured normalized growth for COC(=O)[C@H]1[C@H]2C[C@H]3c4[nH]c5ccccc5c4CCN3C[C@H]2CC[C@@H]1O came out at 1.01

Just so you know, measured normalized growth for CN=C(NC#N)NCCSCc1nc[nH]c1C came out at 0.99

Just so you know, measured normalized growth for C[N+](C)(C)CC(=O)[O-] came out at 0.978

Just so you know, measured normalized growth for COc1cc(OC)c2c(c1)OC(c1ccc(OC)c(OC)c1)C(O)C2 (stereo unspecified) came out at 1.04

Just so you know, measured normalized growth for O=C(O)C1C(O)CCC2CN3CCc4c([nH]c5ccccc45)C3CC21 (stereo unspecified) came out at 1.02

Just so you know, measured normalized growth for CNc1ccccc1C(=O)N1CCc2c([nH]c3ccccc23)C1=O came out at 0.987
